// provenance: paper PMC12408707

Assay System: topoisomerase IIβ (TOP2B) (Homo sapiens, UniProt Q02880)
Construct: recombinant human TOP2B enzyme (Inspiralis)
Sequence (Q02880 2-1626): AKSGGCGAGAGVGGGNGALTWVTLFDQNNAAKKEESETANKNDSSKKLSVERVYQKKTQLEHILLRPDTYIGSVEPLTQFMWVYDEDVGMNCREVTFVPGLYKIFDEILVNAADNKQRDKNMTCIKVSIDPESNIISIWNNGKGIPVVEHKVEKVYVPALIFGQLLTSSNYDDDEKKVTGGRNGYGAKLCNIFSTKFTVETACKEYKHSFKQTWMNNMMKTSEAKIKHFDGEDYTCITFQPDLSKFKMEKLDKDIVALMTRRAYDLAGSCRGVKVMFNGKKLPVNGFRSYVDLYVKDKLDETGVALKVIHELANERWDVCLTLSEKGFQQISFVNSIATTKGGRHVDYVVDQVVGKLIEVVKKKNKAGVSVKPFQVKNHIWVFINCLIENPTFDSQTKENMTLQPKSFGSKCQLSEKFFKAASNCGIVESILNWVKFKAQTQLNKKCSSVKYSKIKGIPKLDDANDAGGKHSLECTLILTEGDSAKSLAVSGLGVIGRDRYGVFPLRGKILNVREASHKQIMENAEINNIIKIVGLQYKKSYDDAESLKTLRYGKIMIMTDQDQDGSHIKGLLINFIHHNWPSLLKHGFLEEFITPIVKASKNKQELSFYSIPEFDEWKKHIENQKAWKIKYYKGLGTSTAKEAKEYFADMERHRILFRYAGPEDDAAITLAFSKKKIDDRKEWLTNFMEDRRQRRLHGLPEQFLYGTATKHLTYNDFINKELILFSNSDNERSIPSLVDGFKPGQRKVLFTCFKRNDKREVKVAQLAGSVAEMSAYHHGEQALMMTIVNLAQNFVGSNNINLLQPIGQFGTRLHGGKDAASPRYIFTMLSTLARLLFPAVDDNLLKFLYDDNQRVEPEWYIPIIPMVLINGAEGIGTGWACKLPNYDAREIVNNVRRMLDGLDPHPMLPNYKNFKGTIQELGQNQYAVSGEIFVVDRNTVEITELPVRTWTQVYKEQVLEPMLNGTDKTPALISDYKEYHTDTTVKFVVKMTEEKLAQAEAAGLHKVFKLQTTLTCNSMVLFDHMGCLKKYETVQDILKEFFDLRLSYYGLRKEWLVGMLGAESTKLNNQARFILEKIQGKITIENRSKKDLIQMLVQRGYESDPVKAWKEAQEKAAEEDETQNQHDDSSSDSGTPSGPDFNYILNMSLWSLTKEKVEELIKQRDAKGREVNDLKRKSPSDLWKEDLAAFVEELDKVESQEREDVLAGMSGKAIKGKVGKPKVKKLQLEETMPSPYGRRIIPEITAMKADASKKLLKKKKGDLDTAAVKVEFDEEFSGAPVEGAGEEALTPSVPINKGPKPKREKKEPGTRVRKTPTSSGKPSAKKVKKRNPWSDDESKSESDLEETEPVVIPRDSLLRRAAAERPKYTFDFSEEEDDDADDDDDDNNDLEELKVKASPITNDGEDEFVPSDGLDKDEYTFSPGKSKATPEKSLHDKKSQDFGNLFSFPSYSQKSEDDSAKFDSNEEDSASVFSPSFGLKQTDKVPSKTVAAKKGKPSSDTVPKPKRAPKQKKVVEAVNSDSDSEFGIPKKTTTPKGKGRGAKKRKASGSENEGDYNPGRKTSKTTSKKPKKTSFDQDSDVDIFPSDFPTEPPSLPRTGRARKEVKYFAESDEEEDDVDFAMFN
Protocol Text: kDNA decatenation assay with recombinant human TOP2B, agarose gel
Reported Property: pIC50
Recall that pIC50 is obtained by taking minus log10 of the concentration measured in molar.

What reported pIC50 corresponds to COc1cccc2c1C(=O)c1c(O)c3c(c(O)c1C2=O)C[C@@](O)(C(C)O)C[C@@H]3O[C@H]1C[C@H](N)[C@H](O)[C@H](C)O1 (some centres unmarked) [DAU-ol, daunorubicinol] on topoisomerase IIβ (TOP2B) (Homo sapiens, UniProt Q02880)? 4.77

What reported pIC50 corresponds to COc1cccc2c1C(=O)c1c(O)c3c(c(O)c1C2=O)C[C@@](O)(C(C)=O)C[C@@H]3O[C@H]1C[C@H](N)[C@H](O)[C@H](C)O1 [DAU, daunorubicin] on topoisomerase IIβ (TOP2B) (Homo sapiens, UniProt Q02880)? 5.40
